biological target: T1, human IgG3 (human, UniProt P01860-1 1-377); assay: anisotropy; pH 4.0 - salt
T1 construct: Calbiochem; plasma IgG3 in anisotropy studies, myeloma-derived (cat. 400124) in batch/column studies; also called hIgG3
T1 sequence (P01860 other isoform, or with tags, fused parts or gaps): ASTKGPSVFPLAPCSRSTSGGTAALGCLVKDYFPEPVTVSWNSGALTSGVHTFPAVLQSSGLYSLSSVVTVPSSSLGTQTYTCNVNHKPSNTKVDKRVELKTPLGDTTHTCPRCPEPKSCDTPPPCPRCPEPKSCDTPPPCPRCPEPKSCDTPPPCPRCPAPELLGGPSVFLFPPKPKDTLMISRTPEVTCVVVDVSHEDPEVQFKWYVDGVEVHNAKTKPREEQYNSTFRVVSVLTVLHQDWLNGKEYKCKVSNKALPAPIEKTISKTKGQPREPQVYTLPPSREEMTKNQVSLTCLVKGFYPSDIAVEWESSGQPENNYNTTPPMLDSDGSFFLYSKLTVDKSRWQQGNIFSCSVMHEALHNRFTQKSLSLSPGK
pKd: −log10 of the molar value.
observationType: pKd

binder="Ac-AGPHNCDDHYWYCKWFPGPEGGGK-NH2 (not fully specified (bridges); printed as Ac-AGPHNCDDHYWYCKWFPGPEGGGK-NH2; cysteine pairing not given here, immobilised in batch assays) [DX389]" observationtype=pKd observedmeasurement=5.60
binder="Ac-AGYWYCWFPDRPECPLYPGPEGGGK-NH2 (not fully specified (bridges); printed as Ac-AGYWYCWFPDRPECPLYPGPEGGGK-NH2; cysteine pairing not given here) [DX413]" observationtype=pKd observedmeasurement=6.08
binder="Ac-AGAATCSTSYWYYQWFCTDSPGPEGGGK-NH2 (not fully specified (bridges); printed as Ac-AGAATCSTSYWYYQWFCTDSPGPEGGGK-NH2; cysteine pairing not given here, immobilised in batch assays) [DX398]" observationtype=pKd observedmeasurement=7.70
binder="Ac-AGSYWCKIWDVCPQSPGPEGGGK-NH2 (not fully specified (bridges); printed as Ac-AGSYWCKIWDVCPQSPGPEGGGK-NH2; cysteine pairing not given here, immobilised in batch assays) [DX392]" observationtype=pKd observedmeasurement=6.49
